Where these numbers come from: paper PMC6001238

System: human T-lymphocyte (CEM) cells
assay.protocol: Cytostatic activity, CEM cell proliferation
Assay type: cell-based
run.conditions: mean ± SD of three experiments; highest concentration tested 250 µM; 3 days; read-out: Toxicity (IC50) CEM
pIC50: −log10 of the molar value.
measurement.kind: pIC50

INSERT INTO assay_data (compound, reported_result) VALUES
  ('CNC(CC(C)C)C(=O)NC1C(=O)NC(CC(N)=O)C(=O)NC2C(=O)NC3C(=O)NC(C(=O)NC(C(=O)NCC(=O)Nc4ccc(-c5ccc(OC)cc5)cc4)c4cc(O)cc(O)c4-c4cc3ccc4O)C(O)c3ccc(c(Cl)c3)Oc3cc2cc(c3OC2OC(CO)C(O)C(O)C2OC2CC(C)(N)C(O)C(C)O2)Oc2ccc(cc2Cl)C1O (centres unmarked)', 5.43),
  ('CN[C@H](CC(C)C)C(=O)N[C@H]1C(=O)N[C@@H](CC(N)=O)C(=O)N[C@H]2C(=O)N[C@H]3C(=O)N[C@H](C(=O)N[C@H](C(=O)NCC(=O)Nc4ccc(C)cc4Cl)c4cc(O)cc(O)c4-c4cc3ccc4O)[C@H](O)c3ccc(c(Cl)c3)Oc3cc2cc(c3O[C@@H]2O[C@H](CO)[C@@H](O)[C@H](O)[C@H]2O[C@H]2C[C@](C)(N)[C@H](O)[C@H](C)O2)Oc2ccc(cc2Cl)[C@H]1O', '< 3.60'),
  ('CN[C@H](CC(C)C)C(=O)N[C@H]1C(=O)N[C@@H](CC(N)=O)C(=O)N[C@H]2C(=O)N[C@H]3C(=O)N[C@H](C(=O)N[C@H](C(=O)NCCNC(=O)/C=C/c4ccc(OC)cc4)c4cc(O)cc(O)c4-c4cc3ccc4O)[C@H](O)c3ccc(c(Cl)c3)Oc3cc2cc(c3O[C@@H]2O[C@H](CO)[C@@H](O)[C@H](O)[C@H]2O[C@H]2C[C@](C)(N)[C@H](O)[C@H](C)O2)Oc2ccc(cc2Cl)[C@H]1O', '< 3.60'),
  ('CN[C@H](CC(C)C)C(=O)N[C@H]1C(=O)N[C@@H](CC(N)=O)C(=O)N[C@H]2C(=O)N[C@H]3C(=O)N[C@H](C(=O)N[C@H](C(=O)NCC(=O)Nc4cccc5ccccc45)c4cc(O)cc(O)c4-c4cc3ccc4O)[C@H](O)c3ccc(c(Cl)c3)Oc3cc2cc(c3O[C@@H]2O[C@H](CO)[C@@H](O)[C@H](O)[C@H]2O[C@H]2C[C@](C)(N)[C@H](O)[C@H](C)O2)Oc2ccc(cc2Cl)[C@H]1O', '< 3.60'),
  ('C#Cc1ccc(/C=C/C(=O)NCCNC(=O)[C@H]2NC(=O)[C@H]3NC(=O)[C@H](NC(=O)[C@@H]4NC(=O)[C@H](CC(N)=O)NC(=O)[C@H](NC(=O)[C@@H](CC(C)C)NC)[C@H](O)c5ccc(c(Cl)c5)Oc5cc4cc(c5O[C@@H]4O[C@H](CO)[C@@H](O)[C@H](O)[C@H]4O[C@H]4C[C@](C)(N)[C@H](O)[C@H](C)O4)Oc4ccc(cc4Cl)[C@H]3O)c3ccc(O)c(c3)-c3c(O)cc(O)cc32)cc1', '< 3.60'),
  ('CN[C@H](CC(C)C)C(=O)N[C@H]1C(=O)N[C@@H](CC(N)=O)C(=O)N[C@H]2C(=O)N[C@H]3C(=O)N[C@H](C(=O)N[C@H](C(=O)NCC(=O)Nc4ccc(Cl)cn4)c4cc(O)cc(O)c4-c4cc3ccc4O)[C@H](O)c3ccc(c(Cl)c3)Oc3cc2cc(c3O[C@@H]2O[C@H](CO)[C@@H](O)[C@H](O)[C@H]2O[C@H]2C[C@](C)(N)[C@H](O)[C@H](C)O2)Oc2ccc(cc2Cl)[C@H]1O', '≤ 3.60'),
  ('CNC(CC(C)C)C(=O)NC1C(=O)NC(CC(N)=O)C(=O)NC2C(=O)NC3C(=O)NC(C(=O)NC(C(=O)NCCCNC(=O)c4ccc(-c5ccccc5)cc4)c4cc(O)cc(O)c4-c4cc3ccc4O)C(O)c3ccc(c(Cl)c3)Oc3cc2cc(c3OC2OC(CO)C(O)C(O)C2OC2CC(C)(N)C(O)C(C)O2)Oc2ccc(cc2Cl)C1O (centres unmarked)', 4.11),
  ('CNC(CC(C)C)C(=O)NC1C(=O)NC(CC(N)=O)C(=O)NC2C(=O)NC3C(=O)NC(C(=O)NC(C(=O)NCCCNC(=O)c4ccc5cc(O)ccc5c4)c4cc(O)cc(O)c4-c4cc3ccc4O)C(O)c3ccc(c(Cl)c3)Oc3cc2cc(c3OC2OC(CO)C(O)C(O)C2OC2CC(C)(N)C(O)C(C)O2)Oc2ccc(cc2Cl)C1O (centres unmarked)', '< 3.60'),
  ('CN[C@H](CC(C)C)C(=O)N[C@H]1C(=O)N[C@@H](CC(N)=O)C(=O)N[C@H]2C(=O)N[C@H]3C(=O)N[C@H](C(=O)N[C@H](C(=O)NCCNC(=O)/C=C/c4ccc(NS(=O)(=O)c5ccc(C(C)C)cc5)cc4)c4cc(O)cc(O)c4-c4cc3ccc4O)[C@H](O)c3ccc(c(Cl)c3)Oc3cc2cc(c3O[C@@H]2O[C@H](CO)[C@@H](O)[C@H](O)[C@H]2O[C@H]2C[C@](C)(N)[C@H](O)[C@H](C)O2)Oc2ccc(cc2Cl)[C@H]1O', '≤ 3.60'),
  ('CN[C@H](CC(C)C)C(=O)N[C@H]1C(=O)N[C@@H](CC(N)=O)C(=O)N[C@H]2C(=O)N[C@H]3C(=O)N[C@H](C(=O)N[C@H](C(=O)NCC(=O)Nc4ccc(C)cc4)c4cc(O)cc(O)c4-c4cc3ccc4O)[C@H](O)c3ccc(c(Cl)c3)Oc3cc2cc(c3O[C@@H]2O[C@H](CO)[C@@H](O)[C@H](O)[C@H]2O[C@H]2C[C@](C)(N)[C@H](O)[C@H](C)O2)Oc2ccc(cc2Cl)[C@H]1O', '< 3.60'),
  ('CN[C@H](CC(C)C)C(=O)N[C@H]1C(=O)N[C@@H](CC(N)=O)C(=O)N[C@H]2C(=O)N[C@H]3C(=O)N[C@H](C(=O)N[C@H](C(=O)NCC(=O)Nc4ccc(OC)cc4)c4cc(O)cc(O)c4-c4cc3ccc4O)[C@H](O)c3ccc(c(Cl)c3)Oc3cc2cc(c3O[C@@H]2O[C@H](CO)[C@@H](O)[C@H](O)[C@H]2O[C@H]2C[C@](C)(N)[C@H](O)[C@H](C)O2)Oc2ccc(cc2Cl)[C@H]1O', '< 3.60');
